Cited source for all entries: the supplement of paper PMC9170038

Each entry below carries its reported apparent KD of MS2 coat protein.
Test system: MS2 coat protein
assay_explanation: apparent KD of MS2 coat protein; designed switch direction (-1 OFF switch, 1 ON switch): -1; higher = weaker reporter binding
settings: Eterna round: R95; input ligand: microRNA oligo, concentration not stated
Numbers only here, please. The scale is nM.

// worked examples, apparent KD of MS2 coat protein included
{"biopolymer_sequence": "CCUUCUCGUGUCAGGAUAUCCACUCAUCGAAAUUAGGAGAAGGGACAUGAGGAUCACCCAUGUAUACAUGCCAG [Cequesar] (puzzle: Brourd's mod of Exclusion 4)", "unit_abbrev": "nM", "apparent KD of MS2 coat protein": 61.7}
{"biopolymer_sequence": "AGUACUAACACGAUAGUGUUAGUACAAUAAGCUUGUGUUACAUGAGGAUCACCCAUGUCCUCAUAAGCUCGUCUUAA [Mat - Sensor v3 - Turn-off var 2 - D59] (puzzle: Sensor v3, turn-off variant 2)", "unit_abbrev": "nM", "apparent KD of MS2 coat protein": 594}
{"biopolymer_sequence": "CAUCCGGCAGGAUAUACAUGAGGAUCACCCAUGUCAGAAAGCAAAUUGUGCGACUCAGGUAGAAGGGUUGGACU [Ederusat] (puzzle: Exclusion 3)", "unit_abbrev": "nM", "apparent KD of MS2 coat protein": 21.1}
{"biopolymer_sequence": "GCCGAUUAAGUCAGGAUAUACCUAUGGAUACAUAGGUAGAAGGGACAUGAGGAUCACCCAUGUUCCUCACCGGC [Fiskers BMX 4 - 15] (puzzle: Brourd's mod of Exclusion 4)", "unit_abbrev": "nM", "apparent KD of MS2 coat protein": 12}
{"biopolymer_sequence": "UUUUUGUGAGGAUAUACGUAGUAGAACAAUAGUACUACUACGUAGAAGGCACAUGAGGAUCACCCAUGUUCCUC [Fiskers Ex 4 Super stable 44 mod 14] (puzzle: Exclusion 4)", "unit_abbrev": "nM", "apparent KD of MS2 coat protein": 45.2}
{"biopolymer_sequence": "AAGUACCGUCACGAUAGUGAUGGUACAGCAAGCAAGUGAACAUGAGGAUCACCCAUGUCCUCAAUUGCUCGUCUUAU [Sensor 3 - 72] (puzzle: Sensor v3, turn-off variant 2)", "unit_abbrev": "nM", "apparent KD of MS2 coat protein": 55.5}

query: Return the recorded apparent KD of MS2 coat protein value; entry: UAAUAGUGAGGAUAUACAGAAUCUGGGUCCCGCGUGUUGAGACAUGAGGAUCACCCAUGUAGAAGGCACAAAAU [Tetiage] (puzzle: Exclusion 2)
result: 112

query: Return the recorded apparent KD of MS2 coat protein value; entry: GAAAAGGUAGGAUAUACGAAAAAAAAUGGUAGAAAAAAAACACAUGAGGAUCACCCAUGUAGAAGGACCAAAAG [salish99_ex2_r3_071] (puzzle: Exclusion 2)
result: 24.6

query: Return the recorded apparent KD of MS2 coat protein value; entry: GACAGACGAGCGUGAGCCGACAUGAGGAUCACCCAUGUGCUCGUCUUAUAACGUACUGUCACGUUAGUGAUAGUGCG [Sensor v3, turn-off variant 1 (MOD of Eli's v1-13 v.4)] (puzzle: Sensor v3, turn-off variant 1)
result: 42.7

* * *

Test system: MS2 coat protein
assay_explanation: apparent KD of MS2 coat protein; higher = weaker reporter binding
settings: Eterna round: R107; input ligand: arginine 13.2 mM
Note that class boundaries on apparent KD of MS2 coat protein are lower segment (below 20 nM), middle segment (20 nM to below 30 nM), upper segment (30 nM or more)

query: Lab note: which band did GUCUCAGACCGAGAUACCAGCUGGGUUUCCCACAUGAGGAUCACCCAUGUAUUCAGAUUAAGCCCUUGGCAGCUCAUCUAGGUCC [theeternabot_sameState_MS2_Theo_B_44] land in?
result: middle segment
